# Tested on: SK-OV-3 ovarian
# assayOverview: NCI-60 one-dose screen, 48 h
# conditionLabel: 10 µM unless noted
About 83,000 compounds went through this panel and 20% of them were active in at least one assay; those are over-represented in the sample as a whole. Active and inactive are the calls of the source. How the source made its calls: active means growth percent below 10; inactive means the rest.
Possible outcomes: active, inactive

{"columns": ["molecule", "targetOfAssay", "cat"],
 "data": [
  ["CC(=O)Oc1ccc(/C=N/NC(N)=S)nc1", "SK-OV-3 ovarian", "inactive"],
  ["CCN(CC)c1ccc(C(=O)c2ccccc2)cc1", "SK-OV-3 ovarian", "inactive"],
  ["COc1cc(NC(C)CCCNC(=O)CCC(=O)NCCCNCCCCCCCCNCCCNC(=O)CCC(=O)NCCCC(C)Nc2cc(OC)cc3cccnc23)c2ncccc2c1 (centres undefined)", "SK-OV-3 ovarian", "inactive"],
  ["COc1cc2nc(-c3ccc(Cl)cc3)cc(OCCCN3CCOCC3)c2cc1OC", "SK-OV-3 ovarian", "inactive"],
  ["NC(=S)N1N=C(c2ccccc2)CC1c1cn(-c2ccccc2)nc1-c1ccc(OCc2ccccc2)cc1 (centres undefined)", "SK-OV-3 ovarian", "inactive"],
  ["c1ccc2cc(Cn3c(-c4cccc5ccccc45)[n+](Cc4ccc5ccccc5c4)c4c5ccccc5c5ccccc5c43)ccc2c1", "SK-OV-3 ovarian", "active"],
  ["COC(=O)c1ccc2c(c1)[n+](=O)c(C(C)=O)c(C(F)(F)F)n2[O-]", "SK-OV-3 ovarian", "active"],
  ["O=C(Cc1ccc(/C=C/C(=O)c2nccs2)cc1)Nc1ccccc1", "SK-OV-3 ovarian", "inactive"],
  ["Cc1ccc(NC(C(=O)c2ccccc2)c2ccccc2)cc1 (centres undefined)", "SK-OV-3 ovarian", "inactive"],
  ["CCNC(=O)Oc1ccc(/C(=C(\\C)c2ccccc2)c2ccc(OCCN3CCCCC3)cc2)cc1", "SK-OV-3 ovarian", "inactive"],
  ["COc1ccc2c(c1)oc1c(C)c3c(c(C)c12)C(=O)N(CCN1CCOCC1)C3=O", "SK-OV-3 ovarian", "inactive"],
  ["Cc1ccc(/C=N/NC(=O)CSc2nc3ccccc3c(=O)n2Cc2ccc(S(N)(=O)=O)cc2)cc1", "SK-OV-3 ovarian", "inactive"],
  ["COc1ccc2nc(-c3ccc(-c4noc(-c5cc(OC)c(OC)c(OC)c5)n4)cc3)[nH]c2c1", "SK-OV-3 ovarian", "inactive"],
  ["Cc1ccc(/C=C(/C#N)n2nnc3cccc(F)c32)cc1", "SK-OV-3 ovarian", "inactive"],
  ["C[C@@H](Nc1ncnc2ccc(-c3cnc(N)nc3)cc12)c1ccc(F)cc1", "SK-OV-3 ovarian", "inactive"],
  ["Brc1ccc2[nH]cc(-c3cncn3CCc3ccccc3)c2c1", "SK-OV-3 ovarian", "inactive"],
  ["O=S(=O)(NCCNc1nccc(-c2c(-c3cccc(F)c3)nc3sccn23)n1)c1ccc(Cl)cc1", "SK-OV-3 ovarian", "inactive"],
  ["O=S(=O)(NCCNc1nccc(-c2c(-c3cccc(O)c3)nc3occn23)n1)c1ccccc1", "SK-OV-3 ovarian", "inactive"],
  ["O=[N+]([O-])CC(c1ccccc1F)c1c[nH]c2ccccc12 (centres undefined)", "SK-OV-3 ovarian", "inactive"]
]}

The reported numbers originate from PubChem BioAssay (NCI).
